Values were extracted from ChEMBL document CHEMBL4483862.

Please go through the items and note down their IC90.
- Tested on: Plasmodium berghei
- test_name: Luciferase/luciferin-expressing antifolate-resistant parasites were used to infect a culture of HepG2 cells that were pre-incubated with compounds. Infected hepatocytes emit light due to the luciferase reaction. Assay results are presented as the percent inhibition of light emission compared to control. […]
- Format: functional
- test_context: sporozoite, read-out: LUCIFERASE INFECTION ASSAY - IC90

For orientation, consider the following solved cases.
{"compound": "CCOc1cc(C(=O)N/N=C2/C(=O)N(C(C)C)c3ccccc32)cc(OCC)c1OCC", "IC90": "> 10 µM"}
{"compound": "O=C(c1cccc(-c2cccnc2)c1)c1cnc(Nc2ccccc2)[nH]1", "IC90": "9.25 µM"}
{"compound": "COc1cccc(CN2CCc3c(c(C(=O)NCCCc4ccccc4)nn3Cc3ccncc3)C2)c1", "IC90": "5.47 µM"}
{"compound": "CN1CCN(C(=O)c2ccc(-c3cnc4cnc(/C=C/c5ccccc5)cn34)cc2)CC1", "IC90": "> 7.79 µM"}
{"compound": "O=C(CNc1cc(C(F)(F)F)cc(C(F)(F)F)c1)NC(=O)NC1CCCC1", "IC90": "> 10 µM"}

// for each compound in input: emit IC90
1. CC(=O)c1c(C)[nH]c(C(=O)Nc2nc(-c3ccc4c(c3)CCC4)cs2)c1C
2. CCn1nc(C(=O)NCc2ccc(OC)cc2)c2c1CCN(C(=O)c1cc(C)n[nH]1)C2
3. O=C(c1ccc(O)cc1)C1CCN(C(=O)c2cccc(N3CCCC3=O)c2)CC1
4. Clc1ccc2c(NCc3ccc(CN4CCOCC4)cc3)ccnc2c1
5. CC(=O)c1cccc(-c2cnc3c(Nc4cccc(OC(F)(F)C(F)F)c4)nccn23)c1
6. Cc1[nH]c2c(-c3ccccc3)c(C(F)(F)F)nn2c(=O)c1Cc1ccccc1
7. Cc1ccc2nc(NC(=O)c3cccc(F)c3)c(C(=O)NCC(C)C)n2c1

Key:
1: > 10 µM; 2: 3.69 µM; 3: > 10 µM; 4: 4.14 µM; 5: 6 µM; 6: > 8.61 µM; 7: 3.14 µM

====

- Tested on: Plasmodium berghei
- test_name: Luciferase/luciferin-expressing antifolate-resistant parasites were used to infect a culture of HepG2 cells that were pre-incubated with compounds. Infected hepatocytes emit light due to the luciferase reaction. Assay results are presented as the percent inhibition of light emission compared to control. […]
- Type: functional
- test_context: sporozoite, HEPG2TOX_HILL_SLOPE 9.23, HEPG2TOX_R_SQUARED 0.804, PBLUC_HILL_SLOPE 15.5, PBLUC_R_SQUARED 0.688, read-out: LUCIFERASE INFECTION ASSAY - IC50
experimental_readout: IC50 (µM)
One number for each entry, in µM.

Consider O=C(Nc1cccc(C(F)(F)F)c1)Nc1ccc2c(c1)no[n+]2[O-] . Its measured IC50 is 1.04

====

- System: Plasmodium berghei
- test_name: Luciferase/luciferin-expressing antifolate-resistant parasites were used to infect a culture of HepG2 cells that were pre-incubated with compounds. Infected hepatocytes emit light due to the luciferase reaction. Assay results are presented as the percent inhibition of light emission compared to control. […]
- Assay type: functional
- test_context: sporozoite, PBLUC_HILL_SLOPE 10.4, PBLUC_R_SQUARED 0.353, read-out: LUCIFERASE INFECTION ASSAY - IC50
experimental_readout: IC50 (µM)
Numbers only, in µM.

GET /value?item= COc1cccc(-c2cn3c(-c4ccccc4)cnc3cn2)c1F &field=IC50 returns 8.27

====

- Tested on: Plasmodium berghei
- test_name: Luciferase/luciferin-expressing antifolate-resistant parasites were used to infect a culture of HepG2 cells that were pre-incubated with compounds. Infected hepatocytes emit light due to the luciferase reaction. Assay results are presented as the percent inhibition of light emission compared to control. […]
- Type: functional
- test_context: sporozoite, HEPG2TOX_HILL_SLOPE 3.29, HEPG2TOX_R_SQUARED 0.953, PBLUC_HILL_SLOPE 4.04, PBLUC_R_SQUARED 0.237, read-out: LUCIFERASE INFECTION ASSAY - IC50
experimental_readout: pIC50
Give bare numbers, as −log10 of the molar value.

The reported value for C1=C(c2ccccc2)CCN(Cc2cccc3cccnc23)C1 in terms of pIC50 is 5.25

====

- Tested on: Plasmodium berghei
- test_name: Luciferase/luciferin-expressing antifolate-resistant parasites were used to infect a culture of HepG2 cells that were pre-incubated with compounds. Infected hepatocytes emit light due to the luciferase reaction. Assay results are presented as the percent inhibition of light emission compared to control. […]
- Type: functional
- test_context: sporozoite, PBLUC_HILL_SLOPE 0.433, PBLUC_R_SQUARED 0.506, read-out: LUCIFERASE INFECTION ASSAY - IC50
experimental_readout: pIC50
One number for each entry, as −log10 of the molar value.

Reported pIC50 ( CCn1c(CNC(=O)C2CCN(c3ccc(C#N)cn3)CC2)nc2ccccc21 ) = 5.31

====

- System: Plasmodium berghei
- test_name: Luciferase/luciferin-expressing antifolate-resistant parasites were used to infect a culture of HepG2 cells that were pre-incubated with compounds. Infected hepatocytes emit light due to the luciferase reaction. Assay results are presented as the percent inhibition of light emission compared to control. […]
- Format: functional
- test_context: sporozoite, PBLUC_HILL_SLOPE 1.21, PBLUC_R_SQUARED 0.165, read-out: LUCIFERASE INFECTION ASSAY - IC50
experimental_readout: IC50 (µM)
One number for each entry, in µM.

# Cc1ccc(-c2noc(-c3csc([C@@H]4C[C@H](O)[C@@H](CO)O4)n3)n2)cc1 with Plasmodium berghei: IC50 is 3.59

====

- Tested on: Plasmodium berghei
- test_name: Luciferase/luciferin-expressing antifolate-resistant parasites were used to infect a culture of HepG2 cells that were pre-incubated with compounds. Infected hepatocytes emit light due to the luciferase reaction. Assay results are presented as the percent inhibition of light emission compared to control. […]
- Type: functional
- test_context: sporozoite, HEPG2TOX_HILL_SLOPE 14.9, HEPG2TOX_R_SQUARED 0.671, read-out: LUCIFERASE INFECTION ASSAY - IC50
experimental_readout: IC50

// IC50 lookup, compound = COc1ccc2cc(CN(C)C(C)C(=O)NCc3ccc(F)cc3)ccc2c1 (stereo unspecified) , result: > 10 µM

====

- System: Plasmodium berghei
- test_name: Luciferase/luciferin-expressing antifolate-resistant parasites were used to infect a culture of HepG2 cells that were pre-incubated with compounds. Infected hepatocytes emit light due to the luciferase reaction. Assay results are presented as the percent inhibition of light emission compared to control. […]
- Format: functional
- test_context: sporozoite, FFLUC_HILL_SLOPE 79.3, FFLUC_R_SQUARED 0.497, PBLUC_HILL_SLOPE 1.92, PBLUC_R_SQUARED 0.35, read-out: LUCIFERASE INFECTION ASSAY - IC50
experimental_readout: IC50
Answer with the value and then the unit.

# IC50 (molecule: Cc1ccc(N2C(=O)C=CC2=O)cc1Cl ) is 6.38 µM

====

- Test system: Plasmodium berghei
- test_name: Luciferase/luciferin-expressing antifolate-resistant parasites were used to infect a culture of HepG2 cells that were pre-incubated with compounds. Infected hepatocytes emit light due to the luciferase reaction. Assay results are presented as the percent inhibition of light emission compared to control. […]
- Type: functional
- test_context: sporozoite, read-out: LUCIFERASE INFECTION ASSAY - IC90
Please go through the items and note down their IC90.

Answered cases to consult:
{"compound": "CC(Sc1nncs1)C(=O)Nc1cc([N+](=O)[O-])ccc1Cl (stereo unspecified)", "IC90": "> 10 µM"}
{"compound": "O=C(NC1CC1)c1ccc(-c2cnc3c(NCc4cccs4)nccn23)cc1", "IC90": "3.14 µM"}
{"compound": "COc1cccc(Nc2nnc(SCC(=O)N(c3ccccc3)C(C)C)s2)c1", "IC90": "> 10 µM"}
{"compound": "Cc1cc(C)c(S(=O)(=O)N2CCC(C(=O)N3CCn4c3nc3ccccc34)CC2)c(C)c1", "IC90": "> 10 µM"}
{"compound": "CC1CC(NC(=S)NCc2csc3ccccc23)CC(C)(C)C1 (stereo unspecified)", "IC90": "> 9.52 µM"}
{"compound": "Oc1c(Cl)cc(Cl)cc1/C=C/c1ccc2cccc(O)c2n1", "IC90": "7.78 µM"}
{"compound": "Clc1nc(-c2ccccn2)nc2scc(-c3ccccc3)c12", "IC90": "1.68 µM"}
{"compound": "COC(=O)c1ccc(C)c(NC(=O)CCc2ccc3c(c2)OCCO3)c1", "IC90": "> 10 µM"}
{"compound": "Cc1ccc(CN(C)C(=O)NNC(=O)c2ccccc2)c(C)c1", "IC90": "> 10 µM"}
{"compound": "Oc1cccc(-c2cnc3ccc(-c4cccc5ncccc45)nn23)c1", "IC90": "> 10 µM"}

Below is a list of compounds. For each, state its recorded IC90.
1. CC(C)CCCC(C)NC(=O)CSCc1cccc(C(=O)O)c1 (stereo unspecified)
2. CCN(CC)S(=O)(=O)c1ccc2[nH]c(=O)cc(C(=O)Nc3cc(Cl)c(OC)cc3OC)c2c1
3. Nc1ccc(C(OC(=O)c2ccc(Cl)cc2Cl)(C(F)(F)F)C(F)(F)F)cc1
4. O=C(NC1CCN(C(=O)c2ccoc2)CC1)c1cccc2c3c([nH]c12)CCCCC3
5. CC(NC(=O)c1cc(-c2ccc3c(c2)OCCO3)nc2c1cnn2C(C)C)c1nc2ccccc2[nH]1 (stereo unspecified)

Key:
["> 10 µM", "> 10 µM", "> 10 µM", "> 10 µM", "> 10 µM"]
